Test system: SF-268 CNS
ASSAY OVERVIEW: NCI tumour cell line growth inhibition, 48 h
VALUE TYPE: TGI

Past entries and their recorded results:
S=C(N/N=C/c1ccco1)NC12CC3CC(CC(C3)C1)C2; > 100 µM
O=S(=O)(c1ccccc1)n1c2cc3cccnc3nc2c2cccnc21; > 100 µM
CCCCCCCCCC/C=C/CC(=O)SCCNC(=O)CCNC(=O)[C@@H](O)C(C)(C)COP(=O)(O)OP(=O)(O)OCC1OC(n2cnc3c(N)ncnc32)C(O)C1OP(=O)(O)O (stereo partly drawn); > 10 µM
Cc1ccc(C(SCC(N)C(=O)O)(c2ccccc2)c2ccc(C)cc2)cc1 (stereo not drawn); 23.9 µM
Cc1ccc(NC(=O)c2c(C)nc(=O)n3c2N(/N=C/c2ccc(Cl)cc2)CC3)cc1; 29.2 µM
CC(=O)c1c2c(cc3c1CC1(Cc4ccccc4C1=O)C3)CCC2 (stereo not drawn); > 100 µM
C=CCNC1=C2C[C@@H](C)C[C@@H](OC)[C@H](OC(=O)CCCCN)[C@H](C)/C=C(\C)[C@@H](OC(N)=O)[C@H](OC)/C=C\C=C(/C)C(=O)NC(=CC1=O)C2=O; 32.8 µM

Please examine the following record next.
Exercise: Would you kindly share the measured TGI for CCn1c(-c2cc(OC)cc(OC)c2)nc2c1C(=O)c1ccccc1C2=O ?
Key: > 100 µM
